- assay_target: PXR (NR1I2) (Homo sapiens)
- Sequence (O75469 whole entry): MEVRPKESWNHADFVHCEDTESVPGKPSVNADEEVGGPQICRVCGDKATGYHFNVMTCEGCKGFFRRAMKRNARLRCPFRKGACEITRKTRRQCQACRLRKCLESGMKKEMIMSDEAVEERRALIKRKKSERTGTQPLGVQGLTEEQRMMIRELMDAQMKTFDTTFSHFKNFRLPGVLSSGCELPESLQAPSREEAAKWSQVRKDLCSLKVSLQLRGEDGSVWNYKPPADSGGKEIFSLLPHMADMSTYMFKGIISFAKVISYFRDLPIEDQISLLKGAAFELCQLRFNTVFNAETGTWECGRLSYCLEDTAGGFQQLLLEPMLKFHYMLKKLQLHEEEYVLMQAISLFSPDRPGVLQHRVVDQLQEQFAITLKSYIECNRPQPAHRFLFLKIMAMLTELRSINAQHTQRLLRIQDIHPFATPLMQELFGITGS
- assay_procedure: Activation of human PXR at 10 uM relative to control
- Assay type: toxicity
- reported_conditions: read-out: Activity
parameter: activity at 10 µM (%)
# number only, unit % dropped from output

What value of activity at 10 µM on PXR (NR1I2) (Homo sapiens) does "CNC(=O)N(c1ccc(S(=O)(=O)Nc2ncccn2)cn1)c1cc(F)c(-c2ccc(F)c(OC(F)(F)F)c2)cc1OC" have?
3

###

- assay_target: Cytochrome P450 3A4 (Homo sapiens, UniProt P08684)
- Sequence (P08684 whole entry): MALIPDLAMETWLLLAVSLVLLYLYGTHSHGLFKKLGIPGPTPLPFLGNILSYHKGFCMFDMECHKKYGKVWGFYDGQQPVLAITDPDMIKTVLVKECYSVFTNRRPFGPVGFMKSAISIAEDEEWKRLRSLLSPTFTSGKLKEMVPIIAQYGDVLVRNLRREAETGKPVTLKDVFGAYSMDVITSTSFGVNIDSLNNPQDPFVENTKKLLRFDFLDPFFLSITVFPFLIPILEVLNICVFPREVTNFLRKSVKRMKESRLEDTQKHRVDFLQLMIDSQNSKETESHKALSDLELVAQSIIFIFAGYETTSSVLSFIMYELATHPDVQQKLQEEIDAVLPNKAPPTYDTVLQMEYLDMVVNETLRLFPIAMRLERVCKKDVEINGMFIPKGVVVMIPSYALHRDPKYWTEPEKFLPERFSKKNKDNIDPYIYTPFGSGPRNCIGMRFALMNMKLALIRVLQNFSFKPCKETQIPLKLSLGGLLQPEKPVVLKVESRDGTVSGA
- assay_procedure: Time dependent inhibition of CYP3A4 in human liver microsomes using midazolam as substrate incubated for 30 mins
- Assay type: ADME, Microsome
parameter: IC50

COc1cc(-c2ccc(Cl)c(C)c2)ccc1-n1c(=O)ccc2cc(S(=O)(=O)Nc3ccon3)ccc21 ... 32 µM

What IC50 value was documented for this molecule, "CNC(=O)N(c1ccc(S(=O)(=O)Nc2ncccn2)cn1)c1cc(Cl)c(-c2ccc(F)c(OC(F)(F)F)c2)cc1OC" ?
11 µM

Entry "CNC(=O)N(c1ccc(S(=O)(=O)Nc2ccon2)cn1)c1cc(Cl)c(-c2cc(F)c(F)c(F)c2)cc1OC" has what IC50?
> 50 µM

May I ask what IC50 has been recorded for "CNC(=O)N(c1ccc(S(=O)(=O)Nc2ncccn2)cn1)c1cc(F)c(-c2ccc(F)c(OC(F)(F)F)c2)cc1OC" ?
> 50 µM

Looking for the measured IC50 of "CNC(=O)N(c1ccc(S(=O)(=O)Nc2ccon2)cn1)c1cc(Cl)c(-c2cc(OC)nc(C(F)(F)F)c2)cc1OC" , can you help?
> 50 µM

# IC50 lookup, item "CNC(=O)N(c1ccc(S(=O)(=O)Nc2ccon2)cn1)c1ccc(-c2ccc(Cl)c(C)c2)cc1OC"
> 50 µM

What value of measured IC50 is listed for "CNC(=O)N(c1ccc(S(=O)(=O)Nc2ccon2)cn1)c1cc(Cl)c(-c2ccc(F)c(OCC(F)(F)F)c2)cc1OC" ?
> 50 µM

Give its IC50 value. Item: "CNC(=O)N(c1ccc(S(=O)(=O)Nc2cccnn2)cn1)c1cc(F)c(-c2ccc(F)c(OC(F)(F)F)c2)cc1OC"
> 50 µM

###

- assay_procedure: Clearance in rat at 0.5 mg/kg, iv
- reported_conditions: in vivo
Give t when the value for clearance is at least 30 mL/min/kg. Give f when it is less.

Item "CNC(=O)N(c1ccc(S(=O)(=O)Nc2ncccn2)cn1)c1cc(F)c(-c2ccc(F)c(C(F)(F)F)c2)cc1OC" with clearance of 30 mL/min/kg or above?
f

# check: clearance of "COc1cc(-c2ccc(Cl)c(C#N)c2)c(F)cc1-n1c(=O)ccc2cc(S(=O)(=O)Nc3ccon3)ccc21" is greater than or equal to 30 mL/min/kg
t

Form field: clearance at least 30 mL/min/kg? Entry: "CNC(=O)N(c1ccc(S(=O)(=O)Nc2ccon2)cn1)c1cc(Cl)c(-c2cc(F)c(F)c(F)c2)cc1OC"
t

###

- assay_target: Cytochrome P450 2C9 (Homo sapiens, UniProt P11712)
- Sequence (P11712 whole entry): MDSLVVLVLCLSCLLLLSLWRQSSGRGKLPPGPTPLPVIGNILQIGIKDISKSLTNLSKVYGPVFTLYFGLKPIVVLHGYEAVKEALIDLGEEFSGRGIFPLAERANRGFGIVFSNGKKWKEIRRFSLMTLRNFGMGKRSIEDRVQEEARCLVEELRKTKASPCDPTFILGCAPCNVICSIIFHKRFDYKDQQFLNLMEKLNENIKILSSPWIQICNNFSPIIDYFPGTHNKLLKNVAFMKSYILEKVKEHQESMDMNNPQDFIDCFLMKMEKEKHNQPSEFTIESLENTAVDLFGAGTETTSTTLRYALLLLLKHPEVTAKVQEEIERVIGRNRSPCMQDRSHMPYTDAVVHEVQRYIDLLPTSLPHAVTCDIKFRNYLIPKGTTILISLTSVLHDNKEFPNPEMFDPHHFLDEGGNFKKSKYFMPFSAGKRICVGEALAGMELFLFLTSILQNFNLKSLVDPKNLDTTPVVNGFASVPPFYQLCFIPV
- assay_procedure: Inhibition of CYP2C9 (unknown origin)
- Type: ADME
parameter: pIC50
Scale: pIC50 equals -log10([C]), with [C] in mol/L.

Request: pIC50, test system Cytochrome P450 2C9 (Homo sapiens, UniProt P11712), entry "CNC(=O)N(c1ccc(S(=O)(=O)Nc2ncccn2)cn1)c1cc(F)c(-c2ccc(F)c(OC(F)(F)F)c2)cc1OC"
5.48
